Source listed as the RNAGym collection of RNA variant scans (doi:10.1021/acssynbio.7b00057).

B1: Pistol ribozyme (parent)
chain: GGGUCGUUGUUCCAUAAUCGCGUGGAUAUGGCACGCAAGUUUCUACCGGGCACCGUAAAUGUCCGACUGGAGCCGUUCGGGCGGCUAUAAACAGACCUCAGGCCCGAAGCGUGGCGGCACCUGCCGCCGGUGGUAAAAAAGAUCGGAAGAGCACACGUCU

- Variants of: B1
- ASSAY_COMMENT: aptazyme ON/OFF ratio, guanine; higher = stronger switching; co-transcriptional cleavage with and without guanine

MUTANT_NAME | aptazyme ON/OFF ratio
U7A U11A C12U C13A | 1.26
U7C U8C G9U U10A U11G C12A C13U | 1.12
U7A U8C G9A U11A C12G C13U | 1.16
U7C U8G G9U U10G U11G C12A | 1.22
U7G U8G G9C U10A U11G | 1.11
U7C U8A G9U U11C C12U C13A | 1.05
U8A G9C U10C C12A | 1.04
U7C U8C G9A U10A C13G | 1.1
U7A U8A G9A U10G U11G C12U C13A | 1.25
U7C U8C G9U U10A C13U | 1.27
U7C U8G G9A U10G U11C C13G | 1.04
U7G U8A U10G U11C C12U | 1.27
U7A U8C G9A U11C C12U C13A | 1.22
U7A U8G G9A U10A U11C C12A C13G | 1.33
G9C U10A U11G | 2.06
U7G U8G G9C U10G U11C C12A C13G | 1.05
